# system-tested: Recombinant human TSG-6 (R&D Biosystems, catalog #2104-TS) (human, UniProt P98066 18-277)
# Sequence (P98066 18-277): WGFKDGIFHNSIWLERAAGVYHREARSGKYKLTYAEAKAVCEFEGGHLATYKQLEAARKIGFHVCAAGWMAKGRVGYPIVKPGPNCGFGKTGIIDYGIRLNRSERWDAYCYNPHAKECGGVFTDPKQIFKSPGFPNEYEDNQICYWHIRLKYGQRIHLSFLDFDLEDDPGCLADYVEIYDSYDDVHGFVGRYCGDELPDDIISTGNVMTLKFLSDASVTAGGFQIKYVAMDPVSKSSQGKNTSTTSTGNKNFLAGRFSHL
# protocol-notes: inhibition of HC-HA transesterase activity; HC-HA transesterase
value-kind: pIC50
Please report pIC50 as the negative decimal logarithm of the molar concentration, giving only the number.

These recorded examples may help you get a feel for the data.
{"binder": "ID12 (antibody, V domains shown) VH: QVQLQQSGPELVKPGASVKLSCKTSGYTFTSYDINWVKQRPGQGLEWIGWIYPSDGSTKFNEKFKGMATLTVDTSSSTAYMELHSLTSEDSTVYFCARGLWYYGGGVDYWGQGTSVTVSS VL: DAVMTQTPLSLPVSLGDQASISCRSTQSLEDSNGNTYLNWYLQKPGQSPQLLIYRVSNRFSGVLDRFSGSGSGTDFTLKISRVEAEDLGVYFCLQVTHVPYTFGGGTKLEIKR", "pIC50": 7.44}
{"binder": "5A5 (antibody, V domains shown) VH: QVQLQQSGAELAKPGASVRLSCQASGYTFTTYWMHWVKQRPRQGLEWIGYIIPSSGYSKCHQKFKDKATLTADKSSNTASMQLSSLTYEDSAVYYCARSTSGYPYYFDYWGQGTTLTVSS VL: ENVLTQSPAIMSASPGEKVTMTCSATSSVSYMHWYQQKSSTSPKLWIYDTSKLASGVPGRFSGSGSGNSYSLTISSMEAEDVATYYCFQGSWYPLTFGAGTKLELKR", "pIC50": 8.10}

Prompt line: Item 4E4 (antibody, V domains shown) VH: QVQLQQPGAELVKPGASVKLSCKASGYTFTSYWMHWVKQRPGQGLEWIGMIHPNSGSTNYNEKFKNKATLTVDKSSSTAYMQLSSLTSEDSAVYYCAPRMFDDYDDYWGQGTTLTVSS VL: QIVLTQSPAIMSASLGERVTMTCTASSSVSSSYLHWYQQKPGSSPKLWIYSTSNLASGVPVRFSGSGSGTSYSLTISRMEAEDAATYYCHHYHRSPYTFGGGTKLEIKR has what recorded pIC50?
Response line: 6.85

Prompt line: Item 1D7 (antibody, V domains shown) VH: EVQLQQSGPELVKPGASVKISCKASGYTFTDYYMNWVKQSHGKSLEWIGDINPNNGGTTYNQKFKGKATLTVDKSSSTAYMELRSLTSEDSAVYYCARWGIFDRFTYWGQGTVVTVSA VL: DIKMTQSPSSMYASRGERVTITCKASQDINSFLSWFQQKPGKSPKTLIYRANRLVDGVPSRFSGSGSGQDYSLTISSLEYEDMGIYYCLQYDEFPLTFGAGTKLELKR has what recorded pIC50?
Response line: 5.96

Prompt line: Item 3C6 (antibody, V domains shown) VH: EVQLQQSGPELVKPGASVKIPCKASGYTFTDYNMDWVKQSHGESLEWIGDIYPNNGGTIYNQKFKDKATLTVDKSSSTAYMELRSLTSEDNAVYYCARKTGTGFDYWGQGTTLTVSS VL: QIVLSQSPAILSASPGEKVTMTCRARSSVIYMHWYQQKPGSSPKPWIYATFNLASGVPARFSGSGSGTSYSLTISRVEAEDAATYYCQQWSSNPPTFGSGTKLEIKR has what recorded pIC50?
Response line: 7.92

Prompt line: Item 1A9 (antibody, V domains shown) VH: EVQLQQSGPELVKPGASVKISCKASGYTFTDYYMNWVKQSHEKSLEWIGDINPNNGGTSYNQKFMGKATLTVDKSSRTAYMELRSLTSEDSTVYYCARWGIYDRFTYWGQGTLVSVSA VL: DIKMTQSPSSMYASLGERVTIACKASQDINSFLSWFQQKPGKSPKTLIYRANRLVDGVPSRFSGSGSGQDYSLTISSLEYEDMGIYYCLQYDEFPLTFGAGTKLELKR has what recorded pIC50?
Response line: 6.43

Prompt line: Item anti-TSG-6 antibody of SEQ ID NO: 1 and SEQ ID NO: 2 (first entry of Table 1, clone name not printed) (antibody, V domains shown) VH: QVRLQQSGAELAKPGASVKLSCKASGYTFTSYWMHWVKQRPGQGLEWIGYIIPSSGYTKNKQNFKDKATLTADKSSSTAYMQLSNLTYEDSAVYSCARSDGSYPYYFDYWGQGTTLTVSS VL: ENVLTQSPAIMSASPGEKVTMTCSASSSVSYMHWYQQKSSTSPKLWIYDTSKLASGVPGRFSGSGSGNSYSLTISSMEAEDVATYYCFQGSGYPLTFGSGTKLEIKR has what recorded pIC50?
Response line: 7.72

Prompt line: Item 5B4 (antibody, V domains shown) VH: QVQLQQPGAELVKPGASVKLSCKASDYTFTNYWMHWVKQRPGRGLEWIGRIDPSSGGAKYNEKFKSKATLTVDKPSSTAYMEFSSLTSEDSAVYYCVRSRYDYDGWFAYWGLGTLVTVSA VL: DIVMTQAAPSVPVTPGESVSISCRSSKSLLHSNGNTYLYWFLQRPGQSPQLLIYRMSNLASGVPDRFSGSGSGTAFTLRISRVEAEDVGVYYCMQHLEYPFTFGGGTKLEIKR has what recorded pIC50?
Response line: 7.17

All figures here come from patent US20220153834A1.
